- Tested on: SW480 human colon adenocarcinoma
- procedure_summary: Tumor cell culture cytotoxicity (MTT dye reduction), SW480
- reported_conditions: Homo sapiens, SW480, read-out: Tumor Cell Culture Cytotoxicity IC50 SW480, Table B, fully aromatic 3-amino derivatives
pIC50: −log10 of the molar value.
I would appreciate it if you labelled entries satisfied when pIC50 is 5 or higher, otherwise not satisfied.

Inquiry: Quick check: does Nc1nc2ccc3cc(F)cc(N)c3c2c(=O)[nH]1 have pIC50 greater than or equal to 5?
Reply text: not satisfied

Inquiry: Please check the record CCN(CC)S(=O)(=O)c1cc2c(ccc3nc(N)[nH]c(=O)c32)cc1Br and state if its pIC50 is at or above 5.
Reply text: satisfied

Inquiry: Please indicate if the recorded pIC50 for Nc1nc2ccc3c([N+](=O)[O-])c(Br)ccc3c2c(=O)[nH]1 meets or exceeds 5.
Reply text: not satisfied

Inquiry: Could you verify whether the entry Cc1cc2nc(N)nc(O)c2c2cc(Cl)ccc12 shows pIC50 of no less than 5?
Reply text: satisfied

Inquiry: Please tell me: is the compound CC(=O)c1ccc(NCc2ccc3ccc4nc(N)[nH]c(=O)c4c3c2)cc1 at or over 5 in terms of pIC50?
Reply text: satisfied

Inquiry: Determine whether this compound has pIC50 no lower than 5: Nc1nc2ccc3c(N)c(Br)ccc3c2c(=O)[nH]1
Reply text: not satisfied

Inquiry: Check this compound for pIC50 at or above 5: Nc1ccc2ccc3nc(N)[nH]c(=O)c3c2c1
Reply text: not satisfied

Inquiry: Is it the case that Cc1ccc2ccc3nc(N)nc(O)c3c2c1 has pIC50 reaching or exceeding 5?
Reply text: not satisfied

Inquiry: Could you tell me if the measured pIC50 of COCc1cc2nc(N)nc(O)c2c2ccccc12 reaches 5 or more?
Reply text: not satisfied

Inquiry: Tell me whether pIC50 is at least 5 here: Nc1ccc2c(ccc3nc(N)nc(O)c32)c1
Reply text: not satisfied

Inquiry: Is the recorded value of pIC50 equal to or greater than 5 for this compound? Nc1nc2ccc3c(Cl)cccc3c2c(=O)[nH]1
Reply text: not satisfied

Inquiry: Hi, just wondering whether Nc1nc2ccc3ccc(Br)c([N+](=O)[O-])c3c2c(=O)[nH]1 shows pIC50 of 5 or higher.
Reply text: not satisfied

Inquiry: Item Nc1nc2ccc3c(F)cccc3c2c(=O)[nH]1 with pIC50 of 5 or above?
Reply text: not satisfied

Inquiry: Determine whether measured pIC50 meets or exceeds 5 for Nc1nc2c3ccccc3c3ccccc3c2c(=O)[nH]1
Reply text: satisfied

Inquiry: Entry C=Cc1ccc2ccc3nc(N)[nH]c(=O)c3c2c1 : is its pIC50 no less than 5?
Reply text: satisfied

Inquiry: Has Nc1nc2ccc3cc(F)cc([N+](=O)[O-])c3c2c(=O)[nH]1 a recorded pIC50 greater than or equal to 5?
Reply text: not satisfied

Inquiry: Could you please find out whether Nc1nc2ccc3c([N+](=O)[O-])c(F)ccc3c2c(=O)[nH]1 has pIC50 that meets 5 or exceeds it?
Reply text: not satisfied

Sourced from patent US6762188B1
